Conditions: Ebola virus entry assay, blue channel fluorescence
Activity calls are given as the source filed them. The rule behind the calls is not given here.
Return exactly one item of true (active), false (inactive)

Sample answers from the record:
Fc1ccc([C@@H]2CCNC[C@H]2COc2ccc3c(c2)OCO3)cc1; true
CN1CCC[C@@H]1CCO[C@](C)(c1ccccc1)c1ccc(Cl)cc1; true
Nc1ccncc1; false
CN(C)CC[C@@H](c1ccc(Br)cc1)c1ccccn1; true

stdin: Status in this test for "CC(C)(C)CC(C)(C)c1ccc(O)cc1" ?
stdout: true

stdin: Another compound: "CN1C(=S)CN=C(c2ccccc2)c2cc(Cl)ccc21"
stdout: false

stdin: Another compound: "CCN(C)C(=O)Oc1cccc([C@H](C)N(C)C)c1"
stdout: false

stdin: Another compound: "CNC(=O)c1cc(Oc2ccc(NC(=O)Nc3ccc(Cl)c(C(F)(F)F)c3)cc2)ccn1"
stdout: true

stdin: Another compound: "NCCc1cc(O)c(O)cc1O"
stdout: true

stdin: Another compound: "CC[C@@H]([C@H](C)O)n1ncn(-c2ccc(N3CCN(c4ccc(OC[C@@H]5CO[C@@](Cn6cncn6)(c6ccc(F)cc6F)C5)cc4)CC3)cc2)c1=O"
stdout: true

stdin: Another compound: "CO[C@@]12[C@H](COC(N)=O)C3=C(C(=O)C(C)=C(N)C3=O)N1C[C@@H]1N[C@@H]12"
stdout: false
